# TEST_TARGET: T1, human insulin receptor (INSR) on CHOK1 cells (human, UniProt P06213 28-1382)
# T1 construct: whole, on cells; CHOK1 cells over-expressing human INSR; also called human INSR; hINSR
# TEST_DESCRIPTION: flow cytometry on CHOK1 cells expressing the INSR ortholog; Fab, anti-human kappa FITC detection
READOUT_NAME: EC50 (nM)
Give the value in nM but do not write nM after it.

Query string: Which measured EC50 value corresponds to XPA.15.247 Fab (Fab, V domains shown, Monomeric Fab; also called Fab247; XPA.15.247 parent Fab) VH: EVQLVETGGGVVQPGRSLRLSCAASGFTFSSYAMHWVRQAPGKGLEWVAVISYDGSNKYYADSVKGRFTISRDNSKNTLYLQMNSLRAEDTAVYYCARHEWGFGMDVWGQGTTVTVSS VL: DVVMTQSPLSLSVTLGQPASISCRSSLSLVYGDENTYLNWFQQRPGQSPRRLLYKVSDRDSGVPDRFSGSGSGTDFTLKISRVEADDVGVYYCMQGTHWPYTFGQGTKLEIKR ?
Result string: 34.8

Query string: Request: XPA.15.247.2.018 Fab (Fab, V domains shown, Monomeric Fab; also called XPA.247.2.018) VH: EVQLVETGGGVVQPGRSLRLSCAASGFTFSSYAMHWVRQAPGKGLEWVAVISYSGSNKYYADSVKGRFTISRDNSKNTLYLQMNSLRAEDTAVYYCARHEWGFGFDYWGQGTTVTVSS VL: DVVMTQSPLSLPVTLGQPASISCRSSQSLVYGDGNTYLNWFQQRPGQSPRRLIYKVSNRDSGVPDRFSGSGSGTEFTLKISRVEAEDVGVYFCMQGTYWPGTFGGGTKLEIKR
Result string: 1.6

Query string: Request: XPA.15.247.2.011 Fab (Fab, V domains shown, Fab; also called XPA.15.247.011) VH: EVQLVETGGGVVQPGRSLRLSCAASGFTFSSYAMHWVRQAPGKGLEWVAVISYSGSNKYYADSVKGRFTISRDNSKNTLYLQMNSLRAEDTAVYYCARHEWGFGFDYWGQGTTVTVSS VL: DVVMTQSPLSLPVTLGQPASISCRSSHSLVYGDGNTYLNWFHQRPGQSPRRLIYKVSNRDSGVPDRFAGSGSGTDFTLKISRVEADDFGVFYCMQGTHWPYTFGQGTKLEIKR
Result string: 2.7
